System: PANC1
Assay: Efficacy screening assay
Type: cell-based
Conditions: Homo sapiens, PANC-1, 72 h, PANC1, pancreas, read-out: EC50
Property: EC50 (µM)
Express it in µM; write the number only.

// query Please provide the recorded EC50 for `CN(C)Cc1ccc(S(=O)(=O)n2ccc(/C=C/C(=O)NO)c2)cc1` , tested on PANC1.
// result 6.79

----------
System: U87MG
Test: Efficacy screening assay
Format: cell-based
Conditions: Homo sapiens, U-87 MG, 72 h, brain, read-out: EC50
Property: EC50 (µM)
Write it as a number; the unit µM goes unstated.

// query I would be grateful if you could share the reported EC50 for `CN(C)Cc1ccc(S(=O)(=O)n2ccc(/C=C/C(=O)NO)c2)cc1` .
// result 5.55

----------
Tested on: SKNAS
Experiment: Efficacy screening assay
Assay type: cell-based
Settings: brain, 72 h, read-out: EC50
Property: EC50
Could you give the number and then its unit, please?

// query I'd like to know its EC50. The compound in question is CN(C)Cc1ccc(S(=O)(=O)n2ccc(/C=C/C(=O)NO)c2)cc1 [resminostat, Resminostat]
// result 3.54 µM

----------
Test system: A204
Experiment: Efficacy screening assay
Assay type: cell-based
Conditions: A204, muscle; 72 h; read-out: EC50
Property: pEC50
Answer as the number alone; pEC50 is minus log10 of concentration in mol/L.

// query Bench note: what pEC50 did `CN(C)Cc1ccc(S(=O)(=O)n2ccc(/C=C/C(=O)NO)c2)cc1` show?
// result 6.04

----------
Tested on: NCIH292
Assay: Efficacy screening assay
Type: cell-based
Details: NCIH292, lung; 72 h; read-out: EC50
Property: pEC50
Here pEC50 is given on a logarithmic scale as minus log10 of the concentration in mol/L.

// query For `CN(C)Cc1ccc(S(=O)(=O)n2ccc(/C=C/C(=O)NO)c2)cc1` , what is its reported pEC50?
// result 5.20

----------
System: CAKI1
Test: Efficacy screening assay
Assay type: cell-based
Conditions: CAKI1, kidney; 72 h; read-out: EC50
Property: pEC50
pEC50 is a log-scale quantity: -log10 of the concentration expressed in molar.

// query Give recorded pEC50 with CAKI1 for the following compound: CN(C)Cc1ccc(S(=O)(=O)n2ccc(/C=C/C(=O)NO)c2)cc1 [resminostat, Resminostat]
// result 5.49

----------
Test system: MIAPACA2
Assay: Efficacy screening assay
Format: cell-based
Conditions: Homo sapiens, MIA PaCa-2; MIAPACA2, pancreas; 72 h; read-out: EC50
Property: EC50

// query Consider the compound shown here: `CN(C)Cc1ccc(S(=O)(=O)n2ccc(/C=C/C(=O)NO)c2)cc1` What is its recorded EC50?
// result 2710 nM

----------
Test system: PLC/PRF/5
Assay: Proliferation assay
Format: cell-based
Details: Homo sapiens, 96 h; PLC/PRF/5, platelet lysate, 4 days; read-out: EC50 in PL
Property: pEC50
Units for pEC50: none; it is -log10 of a concentration expressed in mol/L.

// query Which measured pEC50 value corresponds to `CN(C)Cc1ccc(S(=O)(=O)n2ccc(/C=C/C(=O)NO)c2)cc1` ?
// result 6.05

----------
System: CALU6
Assay: Efficacy screening assay
Format: cell-based
Conditions: Homo sapiens, Calu-6, 72 h, CALU6, lung, read-out: EC50
Property: EC50 (nM)
Report as a plain number; the unit nM is understood.

// query Fill in the blank: the reported EC50 of `CN(C)Cc1ccc(S(=O)(=O)n2ccc(/C=C/C(=O)NO)c2)cc1` is ____.
// result 2930
